Compiled IC50 measurements on Macrophage metalloelastase (Homo sapiens) taken from the literature.
Labelling: IC50 reported below 4 nM becomes Yes; at or above becomes No.

compound: CC(C)[C@@H](NS(=O)(=O)c1ccc2oc3cc(-c4noc(CC5CCCC5)n4)ccc3c2c1)C(=O)O
class.assignment: Yes
--
compound: CCN(CC)C(=O)CN1CC[C@H]2C[C@@H](C(=O)NO)N(S(=O)(=O)c3ccc(OC)cc3)[C@H]2C1 (relative stereo)
class.assignment: No
--
compound: CCC(CC)C(CS(=O)(=O)N1CCc2cc(C(F)(F)F)ccc2C1)N(O)C=O (stereo not shown)
class.assignment: No
--
compound: CC(C)[C@H](NS(=O)(=O)c1ccc2c(c1)oc1ccc(C3CCCC3)cc12)C(=O)O
class.assignment: Yes
--
compound: CC(C)[C@H](NS(=O)(=O)c1ccc2c(c1)oc1ccc(C#Cc3cncn3C)cc12)C(=O)O
class.assignment: Yes
--
compound: Cc1nc(CC(C)C)sc1-c1ccc2c(c1)oc1cc(S(=O)(=O)N[C@H](C(=O)O)C(C)C)ccc12
class.assignment: No
--
compound: CC(C)[C@H](NS(=O)(=O)c1ccc2c(c1)oc1ccc(-c3ncon3)cc12)C(=O)O
class.assignment: No

* * *

Compiled pIC50 measurements on Macrophage metalloelastase (Homo sapiens) taken from the literature.
pIC50: −log10 of the molar value.
Label 1 when pIC50 is at or above 8; anything below gets -1.

molecule: Cc1nn(C)c(C)c1-c1ccc2c(c1)oc1ccc(S(=O)(=O)N[C@@H](C(=O)O)C(C)C)cc12
class.assignment: -1

molecule: CC(C)[C@@H](NS(=O)(=O)c1ccc2oc3cc(-c4nc5ccccc5s4)ccc3c2c1)C(=O)O
class.assignment: -1

molecule: CC(C)[C@H](NS(=O)(=O)c1ccc2c(c1)sc1c(-c3ccsc3Cl)cccc12)C(=O)O
class.assignment: -1

molecule: Cc1nc(C)c(-c2ccc3c(c2)oc2cc(S(=O)(=O)N[C@H](C(=O)O)C(C)C)ccc23)s1
class.assignment: 1

molecule: COC(=O)C#Cc1ccc2oc3cc(S(=O)(=O)N[C@H](C(=O)O)C(C)C)ccc3c2c1
class.assignment: -1

molecule: CC(C)[C@H](NS(=O)(=O)c1ccc2c(c1)oc1ccc(-c3noc(CC(C)(C)C)n3)cc12)C(=O)O
class.assignment: 1

molecule: CC(C)CCn1cc(-c2ccc3sc4cc(S(=O)(=O)N[C@H](C(=O)O)C(C)C)ccc4c3c2)cn1
class.assignment: -1

molecule: CCCN(Cc1cnc(-c2ccc3oc4cc(S(=O)(=O)N[C@H](C(=O)O)C(C)C)ccc4c3c2)s1)CC1CC1
class.assignment: -1

molecule: COc1ccc(S(=O)(=O)N2[C@H](C(=O)NO)C[C@@H]3CCN(C(=O)CCC4CCCC4)C[C@@H]32)cc1 (relative stereo)
class.assignment: -1

molecule: CC(C)[C@@H](NS(=O)(=O)c1ccc2oc3cc(-c4noc(C5CCC5)n4)ccc3c2c1)C(=O)O
class.assignment: 1

molecule: COCC#Cc1ccc2c(c1)sc1cc(S(=O)(=O)N[C@H](C(=O)O)C(C)C)ccc12
class.assignment: 1

molecule: CC(C)C(CS(=O)(=O)N1CCc2ccc(-c3ccc(F)cc3)cc2C1)N(O)C=O (stereo not drawn)
class.assignment: 1

molecule: CC(C)(NS(=O)(=O)c1ccc2oc3cc(-c4noc(C(C)(C)C)n4)ccc3c2c1)C(=O)O
class.assignment: -1

molecule: Cc1cscc1-c1ccc2sc3cc(S(=O)(=O)N[C@H](C(=O)O)C(C)C)ccc3c2c1
class.assignment: -1

molecule: CC(C)[C@H](NS(=O)(=O)c1ccc2c(c1)oc1cc(-c3nc4ccc(F)cc4s3)ccc12)C(=O)O
class.assignment: 1

molecule: COc1cc2c(cc1OC)CN(S(=O)(=O)CC(C1CCCC1)N(O)C=O)CC2 (stereo not drawn)
class.assignment: -1

molecule: CC(C)(C)c1nc(-c2ccc3c(c2)oc2ccc(S(=O)(=O)NCC(=O)O)cc23)no1
class.assignment: -1

molecule: COC#Cc1ccc2oc3cc(S(=O)(=O)N[C@H](C(=O)O)C(C)C)ccc3c2c1
class.assignment: 1

molecule: CC(C)[C@H](NS(=O)(=O)c1ccc2c(c1)oc1ccc(-c3cc4ccccc4s3)cc12)C(=O)O
class.assignment: 1

molecule: O=CN(O)C(CS(=O)(=O)N1CCc2cc(Cl)c(Cl)cc2C1)C1CCCC1 (stereo not drawn)
class.assignment: 1

molecule: O=CN(O)C(CS(=O)(=O)N1CCc2ccccc2C1)C1CC1 (stereo not drawn)
class.assignment: -1
